Experimental Details: Interaction of synthetic Bob peptides with GalCer monolayer (surface pressure)
Type: binding, human
Run Conditions: initial surface pressure 10 mN/m; at equilibrium; mean of three experiments ±SD
Hi! Could you tag entries with Δπ max below 3 mN/m as TRUE, and those at or above as FALSE? Much appreciated.

Example entries begin here.
Sequence Chain: HAEDFARRRKRSVSL [P1, Bob peptide, internal C-ter domain]
Category: TRUE
--
Sequence Chain: RELTLIDDKPYCAEKKAT [P5, Bob peptide, second extracellular loop]
Category: FALSE
--
Sequence Chain: DKEASLGLWRTGSFLCK [P2, Bob peptide, first extracellular loop]
Category: FALSE
--
Sequence Chain: KNYDFGSSTETSDSHLTK [P6, Bob peptide, internal C-ter domain]
Category: TRUE
--
Sequence Chain: MDPEETSVYLDYYYATS [P3, Bob peptide, extracellular N-ter end]
Category: TRUE

Next sequence, please.
IN: Please determine if SGLRQEHYLPSAILQ [P4, Bob peptide, third extracellular loop] is below 3 mN/m in terms of Δπ max.
OUT: FALSE
